Where these numbers come from: patent EP2326328B1

test: blood pressure and pulse of treated type 2 diabetic patients
Format: in vivo, human
conditions: 1. patient, 28. day, oral 14.5 mg dihydralazine sulphate twice daily; before treatment 60
measured_attribute: pulse (beats/min)
Respond numerically; units are beats/min and should not be typed.

Briefly, pulse measured for NNc1nnc(NN)c2ccccc12 [dihydralazine] : 69

----------
test: blood pressure and pulse of treated type 2 diabetic patients
Format: in vivo, human
conditions: 1. patient, 56. day, oral 14.5 mg dihydralazine sulphate twice daily; before treatment 60
measured_attribute: pulse
Please append the unit to your numeric answer.

For this molecule ( NNc1nnc(NN)c2ccccc12 [dihydralazine] ), measured pulse is 60 beats/min

----------
test: blood pressure and pulse of treated type 2 diabetic patients
Type: in vivo, human
conditions: 2. patient, 14. day, oral 14.5 mg dihydralazine sulphate twice daily; before treatment 79
measured_attribute: pulse (beats/min)
Answer with a number only, understood to be in beats/min.

For this molecule ( NNc1nnc(NN)c2ccccc12 [dihydralazine] ), measured pulse is 89
